Assay: Compound stability in rat liver microsomes
Format: in vitro ADME
Conditions: pH 7.4; rat liver microsomes 0.5 mg protein/mL, compound 5 μM, NADPH 1.0 mM, 37° C.; read-out: Rat T1/2
Classes based on half-life at 5 μM: L = under 10 min, M = from 10 min up to 20 min, H = 20 min and over

In [3]: df
Out[3]:
                                 smiles_data  assigned_class
 0  Cc1noc(-c2c(N)ncnc2N[C@@H](C)c2cc3cccc(-c4cnn(C)c4)c3c(=O)n2C2CC2)n1               H
 1  C[C@H](Nc1ncnc(N)c1-c1nnn(C)n1)c1cc2cccc(-c3cnn(C)c3)c2c(=O)n1C1CC1               H
 2  CC[C@H](Nc1ncnc(N)c1-c1noc(C)n1)c1cc2cccc(-c3cnn(C)c3)c2c(=O)n1C1CC1               H
 3  C[C@H](Nc1ncnc(N)c1-c1nnn(C)n1)c1cc2cccc(Cl)c2c(=O)n1-c1ccccc1               H
 4  Cc1noc(-c2c(N)ncnc2N[C@@H](C)c2cc3cccc(-c4cnn(C)c4)c3c(=O)n2-c2ccccc2)n1               H
 5  CC[C@H](Nc1ncnc(N)c1-c1nc(C)no1)c1cc2cccc(F)c2c(=O)n1C1CC1               M
 6  CCc1noc(-c2c(N)ncnc2N[C@@H](CC)c2cc3cccc(Cl)c3c(=O)n2C2CC2)n1               L
 7  Cc1noc(-c2c(N)ncnc2N[C@@H](C)c2cc3cccc(Cl)c3c(=O)n2C2CC2)n1               M
 8  CC[C@H](Nc1ncnc(N)c1-c1nnn(C)n1)c1cc2cccc(Cl)c2c(=O)n1C1CC1               M
 9  CC[C@H](Nc1ncnc(N)c1-c1ncn(C)n1)c1cc2cccc(Cl)c2c(=O)n1C1CC1               H
10  CC[C@H](Nc1ncnc(N)c1-c1nc(C)no1)c1cc2cccc(Cl)c2c(=O)n1-c1ccccc1               M
11  C[C@H](Nc1ncnc(N)c1-c1ncn(C)n1)c1cc2cccc(Cl)c2c(=O)n1C1CC1               M
12  CC[C@H](Nc1ncnc(N)c1-c1nc(C)no1)c1cc2cccc(C)c2c(=O)n1-c1ccccc1               L
13  CC[C@H](Nc1ncnc(N)c1-c1nnc(C)o1)c1cc2cccc(Cl)c2c(=O)n1-c1ccccc1               H
14  Cc1noc(-c2c(N)ncnc2N[C@@H](C)c2cc3cccc(Cl)c3c(=O)n2-c2cccc(F)c2)n1               L

* * *

Biological target: PI3K (p120γ) (h) (Homo sapiens (Human), UniProt P48736)
Sequence (P48736 whole entry): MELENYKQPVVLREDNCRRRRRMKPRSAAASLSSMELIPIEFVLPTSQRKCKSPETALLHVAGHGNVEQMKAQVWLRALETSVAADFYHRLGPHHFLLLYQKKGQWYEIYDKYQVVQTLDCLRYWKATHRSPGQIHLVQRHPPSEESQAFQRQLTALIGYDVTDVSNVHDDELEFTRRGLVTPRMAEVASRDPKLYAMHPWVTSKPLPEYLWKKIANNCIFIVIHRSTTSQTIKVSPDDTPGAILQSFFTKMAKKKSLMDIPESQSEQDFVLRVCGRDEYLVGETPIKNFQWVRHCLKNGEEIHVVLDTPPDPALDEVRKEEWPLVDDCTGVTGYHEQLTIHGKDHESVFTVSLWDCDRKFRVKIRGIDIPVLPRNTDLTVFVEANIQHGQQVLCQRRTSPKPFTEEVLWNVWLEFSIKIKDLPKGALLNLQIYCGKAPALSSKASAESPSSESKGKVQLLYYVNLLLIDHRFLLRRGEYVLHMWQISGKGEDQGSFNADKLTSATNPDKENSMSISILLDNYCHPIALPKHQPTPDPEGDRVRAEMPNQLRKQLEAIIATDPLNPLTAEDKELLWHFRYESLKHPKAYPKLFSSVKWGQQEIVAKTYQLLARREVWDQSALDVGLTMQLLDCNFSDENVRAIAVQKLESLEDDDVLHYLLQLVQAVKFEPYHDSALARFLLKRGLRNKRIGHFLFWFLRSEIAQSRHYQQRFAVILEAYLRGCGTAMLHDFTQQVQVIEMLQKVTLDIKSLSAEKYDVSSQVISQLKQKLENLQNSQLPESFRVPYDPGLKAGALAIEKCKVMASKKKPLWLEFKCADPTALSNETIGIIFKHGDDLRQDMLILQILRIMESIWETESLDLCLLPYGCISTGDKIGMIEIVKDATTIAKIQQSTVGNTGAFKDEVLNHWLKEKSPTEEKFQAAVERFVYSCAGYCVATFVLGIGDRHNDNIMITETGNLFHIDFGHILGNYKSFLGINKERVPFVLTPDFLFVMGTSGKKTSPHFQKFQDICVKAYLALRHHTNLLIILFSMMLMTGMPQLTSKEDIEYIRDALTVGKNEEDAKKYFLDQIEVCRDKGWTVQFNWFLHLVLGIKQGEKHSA
pIC50: −log10 of the molar value.
Would you please tag the item True when its pIC50 is 7 or above, and False when it is below?

                                   compound  assigned_class
0  Cc1noc(-c2c(N)ncnc2N[C@@H](C)c2cc3cccc(Cl)c3c(=O)n2C2CC2)n1 [Ex. 24]            True
1  CC[C@H](Nc1ncnc(N)c1-c1nnc(C)o1)c1cc2cccc(Cl)c2c(=O)n1-c1ccccc1 [Ex. 5]           False
2  Cc1nnc(-c2c(N)ncnc2N[C@@H](C)c2cc3cccc(-c4cnn(C)c4)c3c(=O)n2C2CC2)o1 [Ex. 25]           False
3  Cc1nnc(-c2c(N)ncnc2N[C@@H](C)c2cc3cccc(-c4cnn(C)c4)c3c(=O)n2-c2ccccc2)o1 [Ex. 27]           False

* * *

Test: Pharmacokinetic profiles in rats
Type: in vivo, rat
Settings: iv dosing 1 mg/kg
Would you please tag the item fulfilled when its Cl/F is 30 mL/min/kg or above, and not fulfilled when it is below?

>>> df
                                 smiles_data  assigned_class
 0  CC[C@H](Nc1ncnc(N)c1-c1noc(C)n1)c1cc2cccc(-c3cnn(C)c3)c2c(=O)n1C1CC1   not fulfilled
 1  CCc1noc(-c2c(N)ncnc2N[C@@H](CC)c2cc3cccc(Cl)c3c(=O)n2C2CC2)n1       fulfilled
 2  Cc1nnc(-c2c(N)ncnc2N[C@@H](C)c2cc3cccc(Cl)c3c(=O)n2-c2ccccc2)o1   not fulfilled
 3  C[C@H](Nc1ncnc(N)c1-c1ncn(C)n1)c1cc2cccc(Cl)c2c(=O)n1C1CC1       fulfilled
 4  C[C@H](Nc1ncnc(N)c1-c1nnn(C)n1)c1cc2cccc(-c3cnn(C)c3)c2c(=O)n1C1CC1   not fulfilled
 5  CC[C@H](Nc1ncnc(N)c1-c1nc(C)no1)c1cc2cccc(Cl)c2c(=O)n1-c1ccccc1       fulfilled
 6  Cc1nc(-c2c(N)ncnc2N[C@@H](C)c2cc3cccc(-c4cnn(C)c4)c3c(=O)n2C2CC2)no1   not fulfilled
 7  Cc1nnc(-c2c(N)ncnc2N[C@@H](C)c2cc3cccc(Cl)c3c(=O)n2C2CC2)o1       fulfilled
 8  CC[C@H](Nc1ncnc(N)c1-c1noc(C)n1)c1cc2cccc(F)c2c(=O)n1-c1ccccc1       fulfilled
 9  CC[C@H](Nc1ncnc(N)c1-c1nc(C)no1)c1cc2cccc(Cl)c2c(=O)n1C1CC1       fulfilled
10  CC[C@H](Nc1ncnc(N)c1-c1nnc(C)o1)c1cc2cccc(C)c2c(=O)n1C1CC1       fulfilled
11  Cc1nnc(-c2c(N)ncnc2N[C@@H](C)c2cc3cccc(-c4cnn(C)c4)c3c(=O)n2C2CC2)o1       fulfilled
12  Cc1noc(-c2c(N)ncnc2N[C@@H](C)c2cc3cccc(Cl)c3c(=O)n2-c2ccccc2)n1       fulfilled
13  CC[C@H](Nc1ncnc(N)c1-c1ncn(C)n1)c1cc2cccc(Cl)c2c(=O)n1C1CC1       fulfilled
14  CC[C@H](Nc1ncnc(N)c1-c1nc(C)no1)c1cc2cccc(C)c2c(=O)n1-c1ccccc1       fulfilled

* * *

Item-by-item account of pIC50
Target: PI3K (p110δ/p85α) (h) (Homo sapiens (Human))
Sequence (O00329 whole entry): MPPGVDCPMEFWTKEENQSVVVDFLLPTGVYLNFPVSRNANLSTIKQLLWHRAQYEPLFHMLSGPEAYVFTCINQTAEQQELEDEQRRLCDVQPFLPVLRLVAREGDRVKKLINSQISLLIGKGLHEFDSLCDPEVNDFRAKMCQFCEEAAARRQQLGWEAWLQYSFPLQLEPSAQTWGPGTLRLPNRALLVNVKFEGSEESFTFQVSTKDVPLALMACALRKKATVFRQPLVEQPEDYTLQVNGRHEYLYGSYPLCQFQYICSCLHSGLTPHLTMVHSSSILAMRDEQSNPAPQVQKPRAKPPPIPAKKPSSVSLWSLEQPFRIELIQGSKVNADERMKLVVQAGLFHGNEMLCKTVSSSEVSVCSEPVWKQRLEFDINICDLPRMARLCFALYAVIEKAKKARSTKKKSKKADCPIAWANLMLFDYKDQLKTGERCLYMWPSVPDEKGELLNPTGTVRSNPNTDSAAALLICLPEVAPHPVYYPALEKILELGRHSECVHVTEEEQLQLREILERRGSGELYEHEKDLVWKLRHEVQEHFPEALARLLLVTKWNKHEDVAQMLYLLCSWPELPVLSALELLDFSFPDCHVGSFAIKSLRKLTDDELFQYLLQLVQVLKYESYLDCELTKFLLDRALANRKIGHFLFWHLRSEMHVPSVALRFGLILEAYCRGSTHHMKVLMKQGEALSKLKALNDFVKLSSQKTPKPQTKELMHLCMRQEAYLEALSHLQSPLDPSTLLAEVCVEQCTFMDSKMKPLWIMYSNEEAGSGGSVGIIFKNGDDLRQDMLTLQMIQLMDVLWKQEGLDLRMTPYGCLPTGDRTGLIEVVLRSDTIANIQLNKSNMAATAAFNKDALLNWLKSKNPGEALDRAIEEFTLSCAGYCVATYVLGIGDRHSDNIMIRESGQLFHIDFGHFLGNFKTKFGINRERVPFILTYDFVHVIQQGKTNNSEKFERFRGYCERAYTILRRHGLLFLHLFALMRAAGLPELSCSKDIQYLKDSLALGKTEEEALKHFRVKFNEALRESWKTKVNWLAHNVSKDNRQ
Sequence (P27986 whole entry partner): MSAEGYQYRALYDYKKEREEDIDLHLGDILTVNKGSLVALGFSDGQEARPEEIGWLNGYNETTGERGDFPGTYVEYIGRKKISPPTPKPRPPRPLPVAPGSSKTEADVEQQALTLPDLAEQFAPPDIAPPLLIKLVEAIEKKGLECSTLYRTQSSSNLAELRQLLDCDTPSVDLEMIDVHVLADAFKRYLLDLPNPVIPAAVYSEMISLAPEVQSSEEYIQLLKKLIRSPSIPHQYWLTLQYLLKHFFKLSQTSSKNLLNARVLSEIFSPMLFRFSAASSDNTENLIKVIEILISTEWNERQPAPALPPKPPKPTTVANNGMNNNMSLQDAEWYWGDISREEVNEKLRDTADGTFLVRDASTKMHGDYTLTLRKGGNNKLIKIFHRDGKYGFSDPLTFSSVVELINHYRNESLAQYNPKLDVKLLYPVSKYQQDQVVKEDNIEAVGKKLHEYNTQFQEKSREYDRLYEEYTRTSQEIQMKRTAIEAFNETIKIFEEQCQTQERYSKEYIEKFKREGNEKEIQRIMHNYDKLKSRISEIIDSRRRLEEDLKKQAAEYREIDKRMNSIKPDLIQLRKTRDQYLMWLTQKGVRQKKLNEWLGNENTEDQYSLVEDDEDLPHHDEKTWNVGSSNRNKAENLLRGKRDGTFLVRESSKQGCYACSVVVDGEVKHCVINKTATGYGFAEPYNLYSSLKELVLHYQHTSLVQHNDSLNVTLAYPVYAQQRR
Test: PI3K (p110δ/p85α) (h) non-radioactive HTRF kinase assay
Settings: performed at Millipore UK Ltd
pIC50: −log10 of the molar value.
Measured Parameter: pIC50

>>> df
                                   compound  measured_value
0  Cc1noc(-c2c(N)ncnc2N[C@@H](C)c2cc3cccc(Cl)c3c(=O)n2C2CC2)n1 [Ex. 24]            8.52
1  C[C@H](Nc1ncnc(N)c1-c1nnn(C)n1)c1cc2cccc(Cl)c2c(=O)n1C1CC1 [Ex. 12]            7.92
2  CCc1noc(-c2c(N)ncnc2N[C@@H](CC)c2cc3cccc(Cl)c3c(=O)n2C2CC2)n1 [Ex. 22]            8.52
3  CC[C@H](Nc1ncnc(N)c1-c1nc(C)no1)c1cc2cccc(Cl)c2c(=O)n1C1CC1 [Ex. 7]            8.40
4  Cc1nnc(-c2c(N)ncnc2N[C@@H](C)c2cc3cccc(-c4cnn(C)c4)c3c(=O)n2-c2ccccc2)o1 [Ex. 27]            7.77
5  Cc1nc(-c2c(N)ncnc2N[C@@H](C)c2cc3cccc(Cl)c3c(=O)n2C2CC2)no1 [Ex. 11]            7.89

* * *

Item-by-item account of Vd
Test: Pharmacokinetic profiles in rats
Assay type: in vivo, rat
Details: rat, plasma, iv dosing 1 mg/kg, read-out: Vss
Measured Parameter: Vd (L/kg)

                                smiles_data  display_unit  measured_value
0  CC[C@H](Nc1ncnc(N)c1-c1nnc(C)o1)c1cc2cccc(C)c2c(=O)n1C1CC1          L/kg            4.08
1  Cc1nnc(-c2c(N)ncnc2N[C@@H](C)c2cc3cccc(Cl)c3c(=O)n2C2CC2)o1          L/kg             2.4
2  Cc1noc(-c2c(N)ncnc2N[C@@H](C)c2cc3cccc(Cl)c3c(=O)n2-c2ccccc2)n1          L/kg            1.94
3  Cc1noc(-c2c(N)ncnc2N[C@@H](C)c2cc3cccc(Cl)c3c(=O)n2C2CC2)n1          L/kg            5.46
4  CC[C@H](Nc1ncnc(N)c1-c1ncn(C)n1)c1cc2cccc(Cl)c2c(=O)n1C1CC1          L/kg            2.65
5  C[C@H](Nc1ncnc(N)c1-c1nnn(C)n1)c1cc2cccc(Cl)c2c(=O)n1C1CC1          L/kg            1.42

* * *

Item-by-item account of half-life at 5 μM
Assay: Compound stability in rat liver microsomes
Assay type: in vitro ADME
Details: pH 7.4; rat liver microsomes 0.5 mg protein/mL, compound 5 μM, NADPH 1.0 mM, 37° C.; read-out: Rat T1/2
Measured Parameter: half-life at 5 μM

                                smiles_data  measured_parameter  measured_value
0  Cc1nnc(-c2c(N)ncnc2N[C@@H](C)c2cc3cccc(-c4cnn(C)c4)c3c(=O)n2C2CC2)o1   half-life at 5 μM         171 min
1  CC[C@H](Nc1ncnc(N)c1-c1noc(C)n1)c1cc2cccc(Cl)c2c(=O)n1C1CC1   half-life at 5 μM        19.2 min
2  Cc1nnc(-c2c(N)ncnc2N[C@@H](C)c2cc3cccc(-c4cnn(C)c4)c3c(=O)n2-c2ccccc2)o1   half-life at 5 μM        74.5 min
3  CC[C@H](Nc1ncnc(N)c1-c1nc(C)no1)c1cc2cccc(Cl)c2c(=O)n1C1CC1   half-life at 5 μM        9.92 min
4  CC[C@H](Nc1ncnc(N)c1-c1noc(C)n1)c1cc2cccc(F)c2c(=O)n1-c1ccccc1   half-life at 5 μM        7.53 min

Hey, just so you know, these numbers are from patent US9512114B2.
